Give melting point for every item shown.

- N#Cc1ccc(-c2cc(C(=O)N[C@H]3CC[C@H](C(=O)O)CC3)c(=O)n(Cc3ccccc3)n2)cc1: 215 to 218 °C
- COc1ccc(Cn2c(=O)c3ccccc3n(CCCCCl)c2=O)cc1: 123 to 124 °C
- O=C(/C=C/c1c[nH]c2ccccc12)c1ccccc1: 167 to 170 °C
- O=[N+]([O-])c1ccc2c(c1)C(Cl)=NC(CF)(CF)O2: 75 to 77 °C
- O=C(c1ccccc1)c1nc(Br)c(Br)[nH]1: 215 to 217 °C
- O=C(NCC1CC1)c1[nH]c2ccc(Cl)cc2c1S(=O)(=O)c1ccccc1: 232 to 234 °C

Lab note: each molecule below needs its melting point filled in.
1. O=C(NC1CCN(CCCOc2ccccc2C(=O)O)CC1)c1ccccc1
2. COc1ccc(-c2ccc(Cl)cc2)cc1COCCc1cccc(NS(=O)(=O)C(F)(F)F)c1
3. CS(=O)(=O)c1ccc(-c2cc(C(=O)CCCO[N+](=O)[O-])nn2-c2ccc(C(F)(F)F)cc2)cc1

["207 to 208 °C", "99 to 101 °C", "152 to 154 °C"]

* * *

Consider the following compounds; for each one, report its melting point.

- COc1cc(C=C(C#N)C(=O)Nc2cccc(Cl)c2)cc(F)c1O: 235 °C
- COc1cc(C=C(C=O)C(C=O)=Cc2ccc(O)c(OC)c2)ccc1O: 177 to 178 °C
- CN(C)Cc1ccc(CSCCNC(=C[N+](=O)[O-])NCCSCc2ccc(CN(C)C)o2)o1: 58 to 62 °C
- Cc1oc(-c2ccccc2)nc1COc1ccc(OC(C)(C)C(=O)O)cc1: 136 to 138 °C
- CO[C@@H]1COCC[C@]1(OC)c1cccc(OCc2ccc3ccccc3c2)c1 (racemic): 86 to 88 °C
- CN1CCN(CCC/C=C/c2ccc3c(Nc4ccc(Sc5nccn5C)c(Cl)c4)c(C#N)cnc3c2)CC1: 219 to 227 °C

Dear reader, for each entry below, please note its melting point.
1. CC1(C)Oc2ccc(S(=O)(=O)C(F)(F)F)cc2C(N2Cc3cccc([N+](=O)[O-])c3C2=O)C1O (centres undefined)
2. O=c1nc(-c2cccc(Cl)c2)c2cc(C(c3ccc(Cl)cc3)n3ccnc3)ccc2[nH]1 (centres undefined)
3. N#CCCNC(=O)c1cccc(-c2cccc3nn(Cc4cccc(Cl)c4)cc23)c1

["283 to 284 °C", "255 °C", "185 to 186 °C"]

* * *

quantity.measured: melting point

Use these answered entries as a reference point.
- Cc1ccc2c(c1)c1cc(-c3ccc(OCC#N)cc3)c(=O)n(C)c1n2C: 195 to 196 °C
- CCN1c2ncc(CCc3ccncc3)cc2C(=O)N(C)c2ccc(I)nc21: 174 °C
- CN(C)CC=C(c1ccc(-c2ccccc2)cc1)c1ccc(-c2ccccc2)cc1: 94 to 95 °C
- CS(=O)(=O)c1ccc(Oc2ccc(CC(=O)O)cc2)cc1: 122 to 125 °C
- Clc1ccc2c(C3CCNCC3)n[nH]c2c1: 174 to 176 °C

Would you mind listing melting point for each of the following compounds?
1. CCOC(=O)c1ccc(-c2ccc(-c3ccc(C(F)(F)F)cc3)n2C)cc1
2. CCOC(=O)c1csc(Br)n1
3. c1ccc2c(c1)CSc1nnnn1-2
4. CN(C)c1ccc(-c2cccc3c2C2(COc4cc5c(cc42)OCCO5)C(=O)N3Cc2ccccn2)cn1 (stereo not given)
5. O=C1CN(Cc2ccccc2)CC2=C1N=C1N=C(N3CCOCC3)NN1C2

1: 150 to 151 °C; 2: 66 to 68 °C; 3: 137 °C; 4: 187 to 188 °C; 5: 291 to 293 °C

* * *

quantity.measured: melting point

* CC(C)N1C(=O)C(=O)NC1=NC(=N)Nc1ccc(Cl)c(Cl)c1 | 230 °C
* O=C(Nc1ccc(Oc2ccnc(NCC3CC3)n2)c2ccccc12)c1cc(F)cc(N2CCCCC2)c1 | 117 to 119 °C
* O=S1(=O)CCCN1Cc1ccncc1 | 82 °C
* COC(=O)c1ccc(CN2CCN(C(=O)c3ccc(Cl)cc3)CC2)cc1 | 134 to 135 °C
* N#Cc1cnc2c(cc([N+](=O)[O-])c3nncc32)c(-c2ccccc2Cl)n1 | 193 to 196 °C
* NNC(=O)c1nn(Cc2ccc(Cl)cc2Cl)c2ccccc12 | 161 to 162 °C
* COCCCc1cc(Cl)cc2nc(Cc3ccccc3Cl)oc12 | 49 to 51 °C
* CCC1=CC(Cl)(NC2CCC(C(C(=O)OC)C(=O)OC)CC2)NC=N1 (stereo not given) | 82 to 83 °C
* O=c1c2ccc(F)cc2oc2ccc(C(F)(F)F)cc12 | 140 to 142 °C

Query molecule follows.
// melting point lookup, key: `Cc1cc([N+](=O)[O-])ccc1C(=O)Nc1ccc2ccc(Cl)nc2n1`
229 °C

* * *

quantity.measured: melting point

# count of solved cases: 5
• CSc1nccc(NC(N)=NCC(F)(F)F)n1 = 201 to 202 °C
• CC(C)C(=O)CC(=O)c1ccc(C(=O)c2ccccc2)cc1 = 76.5 to 78 °C
• Nc1c(-c2cccs2)nsc1C(=O)O = 221 to 224 °C
• CC(C)(C)c1ncc(Br)cn1 = 50 to 51 °C
• Nc1ncnc2c1c(-c1ccc(Oc3ccccc3CN3CCCCC3)cc1)cn2C1CCOC1 (stereo unspecified) = 76 to 78 °C

We next turn to a different compound, shown below.
Entry COc1ccc(CN2C(=O)C(C)(c3ccc(F)cc3Cl)c3cc(Cl)ccc32)c(OC)c1 (stereo unspecified) has what melting point?
166 °C

* * *

Record form. Attribute: melting point. Fill in for each entry.

• COc1ccc2oc(C(=O)NCc3ccccc3)c(OC(C)C)c2c1 = 68 to 69 °C
• CS(=O)(=O)c1ccc(-n2cc(CC(=O)O)nc2-c2ccc(Cl)cc2)cc1 = 263 to 264 °C
• Nc1c(-c2cc(Cl)ccc2O)c2c(Cl)cc(Cl)cc2[nH]c1=O = 275 to 277 °C
• CCc1nnc2c(NC3CCCCC3)nc3ccccc3n12 = 217 to 220 °C
• CN1C(=O)CC[C@]2(C)c3ccc(Sc4nc5cc(Cl)ccc5s4)cc3CC[C@@H]12 = 179 to 180 °C

Below are 4 molecules. Give each one its melting point.
1. CN(C)C(=O)c1c(S(N)(=O)=O)ccn1C
2. Cc1cc(SC2=C(O)CC(C3CCCC3)(C3CCCC3)OC2=O)c(C(C)(C)C)cc1OCCO
3. CC(C)OC(=O)c1cc(-c2ccccc2)c(=O)n2c1-c1sccc1CC2
4. CCCCc1nc2c(N)nc3ccccc3c2n1CCOCCN1CCCS1(=O)=O

1. 185 to 190 °C
2. 90 to 92 °C
3. 166 °C
4. 152 to 154 °C

Which measured melting point value corresponds to `CCOc1cc(NC(=O)C2=C(C(=O)N(CC)CC)CCCC2)ccc1Cl` ?
98 to 100 °C

* * *

Provide the reported melting point of each item.

In the examples that follow, each entry is paired with its recorded melting point.
• CCOP(=O)(Cc1ccc(NC(=O)c2cc3c(s2)-c2c(SC)sc(C(=O)Nc4ccc(CP(=O)(OCC)OCC)cc4)c2CC3)cc1)OCC = 262 to 263 °C
• CC(=O)Nc1ccc(-n2ccnc2S(=O)Cc2ccccc2N2CCOCC2)nc1 (stereo not given) = 207 to 209 °C
• N#Cc1cnn2c(C(F)(F)F)cc(-c3ccc(Cl)c(Cl)c3)nc12 = 206 °C
• Cc1cccc(-n2c(=O)[nH]c3ccc(F)cc3c2=O)c1 = 278 to 279 °C

Would you mind listing melting point for each of the following compounds?
1. CCOC(=O)c1cnc(Cl)cc1Cl
2. CC(C)(O)Cn1c(CON2C(=O)c3ccccc3C2=O)nc2c(N)nc3ccccc3c21
3. CNC(=O)c1[nH]c(C(C)(C)C)cc1NC(=O)Nc1ccc(C)cc1
4. CCOC(=O)N1CCC(NC2(c3ccccc3Cl)C(=O)Nc3ccc(Cl)cc32)CC1 (stereo not given)

1: 32 to 32.5 °C; 2: 270 to 272 °C; 3: 164 to 166 °C; 4: 204 °C

Required: melting point, one value per compound below.
1. COc1ccc(C2CSc3ccccc3NC2=O)cc1Br (stereo not given)
2. COc1ccc(CC(=O)CCCCCBr)cc1
3. O=C1c2ccccc2C(=O)N1CC1CC1c1cccc2nnsc12 (stereo not given)
4. CCOC(=O)c1ccc(C(=O)O)s1
5. CC(=O)O[C@H]1[C@H](OC(C)=O)CSC(Oc2ccc3c(ccn3C(=O)OC(C)(C)C)c2)[C@@H]1OC(C)=O (stereo not given in full)

["200 °C", "41 to 43 °C", "123 to 125 °C", "> 300 °C", "58 to 62 °C"]

// each compound listed below needs its melting point
1. N#Cc1nn(-c2c(Cl)cc(C(F)(F)F)cc2Cl)c(N)c1-c1ccc(Br)s1
2. CCOCc1nc2c(N)nc3cc(-c4cccnc4)ccc3c2n1CCN1CCNCC1

["214 °C", "208 to 211 °C"]
